Tested on: CAL-148
Assay: normalised viability (% of control), CellTiter-Blue; higher = more viable cells (about 100 = DMSO control)
Conditions: 30 nM; incubation time: 72 h
The reader will find reported normalised viability values listed item by item below.
QUANTITY NAME: normalised viability (%)

>>> result_value("C[C@]1(c2nc3c(C(N)=O)cccc3[nH]2)CCCN1")
86.4
>>> result_value("CS(=O)(=O)c1ccc(C(=O)Nc2ccc(Cl)c(-c3ccccn3)c2)c(Cl)c1")
93.5
>>> result_value("CN1CCC(COc2cnc(-c3cccc(Cn4nc(-c5cccc(C#N)c5)ccc4=O)c3)nc2)CC1")
83.2
>>> result_value("N#CC[C@H](C1CCCC1)n1cc(-c2ncnc3[nH]ccc23)cn1")
82.4
>>> result_value("C=CC[C@@H]1/C=C(\\C)C[C@H](C)C[C@H](OC)[C@H]2O[C@@](O)(C(=O)C(=O)N3CCCC[C@H]3C(=O)O[C@H](/C(C)=C/[C@@H]3CC[C@@H](O)[C@H](OC)C3)[C@H](C)[C@@H](O)CC1=O)[C@H](C)C[C@@H]2OC")
101
>>> result_value("C=CCNC1=C2C[C@@H](C)C[C@H](OC)[C@H](O)[C@@H](C)/C=C(\\C)[C@H](OC(N)=O)[C@@H](OC)/C=C\\C=C(/C)C(=O)NC(=CC1=O)C2=O")
89.7
